- targetEntity: exon 20 T790M mutant-type EGFR enzyme (Homo sapiens, UniProt P00533, T790M)
- Sequence (P00533 25-1210 T790M): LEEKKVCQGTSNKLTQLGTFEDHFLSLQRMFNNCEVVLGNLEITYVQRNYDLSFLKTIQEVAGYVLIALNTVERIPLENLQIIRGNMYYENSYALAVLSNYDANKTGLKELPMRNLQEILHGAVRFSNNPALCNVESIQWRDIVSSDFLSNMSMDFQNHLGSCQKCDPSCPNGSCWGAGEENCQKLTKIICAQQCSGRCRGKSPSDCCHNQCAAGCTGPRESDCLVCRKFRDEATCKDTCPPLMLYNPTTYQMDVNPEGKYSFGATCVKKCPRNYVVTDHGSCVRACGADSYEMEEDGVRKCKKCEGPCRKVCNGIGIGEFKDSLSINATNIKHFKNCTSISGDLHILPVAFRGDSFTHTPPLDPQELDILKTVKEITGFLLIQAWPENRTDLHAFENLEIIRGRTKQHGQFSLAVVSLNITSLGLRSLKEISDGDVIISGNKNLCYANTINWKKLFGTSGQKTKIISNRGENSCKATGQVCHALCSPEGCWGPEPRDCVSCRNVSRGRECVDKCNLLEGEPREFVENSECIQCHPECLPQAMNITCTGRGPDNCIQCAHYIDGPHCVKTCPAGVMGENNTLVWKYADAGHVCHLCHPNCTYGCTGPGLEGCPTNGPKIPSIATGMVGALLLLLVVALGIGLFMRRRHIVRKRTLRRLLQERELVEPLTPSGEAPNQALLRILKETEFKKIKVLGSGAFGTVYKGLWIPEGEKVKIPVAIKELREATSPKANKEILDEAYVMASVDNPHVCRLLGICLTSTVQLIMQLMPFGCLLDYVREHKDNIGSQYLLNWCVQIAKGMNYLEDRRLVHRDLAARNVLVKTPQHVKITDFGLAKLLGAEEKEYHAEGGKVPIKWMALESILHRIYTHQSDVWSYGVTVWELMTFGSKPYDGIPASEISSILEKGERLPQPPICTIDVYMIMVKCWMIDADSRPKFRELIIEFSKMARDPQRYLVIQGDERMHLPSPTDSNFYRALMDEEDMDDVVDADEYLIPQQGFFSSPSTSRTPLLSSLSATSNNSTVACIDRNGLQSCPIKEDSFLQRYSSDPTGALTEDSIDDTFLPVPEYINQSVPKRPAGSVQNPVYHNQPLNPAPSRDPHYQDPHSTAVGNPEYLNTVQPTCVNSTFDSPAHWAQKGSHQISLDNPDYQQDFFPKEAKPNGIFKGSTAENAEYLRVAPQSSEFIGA
- assayDetails: Enzymologic experiment of T790M mutant-type EGFR (TR-FRET)
- Type: biochemical
- conditionSet: T790M EGFR enzyme, TR-FRET, ATP 1 to 10 uM
metricName: IC50 (nM)

C=CC(=O)Nc1cc(Nc2nccc(-n3cnc4cc(OC)ccc43)n2)c(OC)cc1N(C)CCN(C)C [Example 59] ... 0.35

[A] C=CC(=O)Nc1cc(Nc2nccc(-n3c(C)nc4ccc(C#N)cc43)n2)c(OC)cc1N(C)CCN(C)C [Example 74]
[B] C=CC(=O)Nc1cc(Nc2ncc(Cl)c(-n3nc(CC)c4cc(C#N)ccc43)n2)c(OC)cc1N(C)CCN(C)C [Example 118]
[C] C=CC(=O)Nc1cc(Nc2ncc(Cl)c(-n3cnc4cc(OC)ccc43)n2)c(OC)cc1N(C)CCN(C)C [Example 63]
q: Sort low-to-high on IC50, please. Please reply with the labels ordered as requested. Many thanks.
a: C, B, A

###

- targetEntity: exon 20 T790M mutant-type EGFR enzyme (Homo sapiens, UniProt P00533, T790M)
- assayDetails: Enzymologic experiment of T790M mutant-type EGFR (TR-FRET)
- Format: biochemical
- conditionSet: ratio WT IC50 / T790M IC50, enzyme
- Method: 2) 1 to 5 μL of diluted solution in gradient of the compound was added. 3) The mixture was incubated for 10 minutes at room temperature. 6) 5 μL of EDTA stop solution was added to terminate the reaction for 5 minutes. 7) […] of a test solution containing the labeled antibody was added, and the mixture was incubated at room temperature for 1 hour. 9) The inhibition rates were calculated according to the fluorescence signal values. […]
metricName: Selectivity of wild-type/mutant-type

Consider the worked cases shown below.
COc1cc(N(C)CCN(C)C)c(NC(=O)/C=C/CN(C)C)cc1Nc1nccc(-c2cn(C3CC3)c3ccccc23)n1 [Example 122] ... 17.14
C=CC(=O)Nc1cc(Nc2ncc(C(F)(F)F)c(-n3ncc4cc(OC)ccc43)n2)c(OC)cc1N(C)CCN(C)C [Example 49] ... 37.06
C=CC(=O)Nc1cc(Nc2ncc(Cl)c(-c3cn(C)c4ccccc34)n2)c(OC(F)F)cc1N(C)CCN(C)C [Example 5] ... 2.5
C=CC(=O)Nc1cc(Nc2ncc(C(F)(F)F)c(-n3nc(C)c4cc(OC)ccc43)n2)c(OC)cc1N(C)CCN(C)C [Example 107] ... 36.84
C=CC(=O)Nc1cc(Nc2nccc(-c3cn(C)c4ccccc34)n2)c(OC(F)F)cc1N1CCN(C)CC1 [Example 2] ... 15
C=CC(=O)Nc1cc(Nc2nccc(-c3cn(C)c4ccc(F)c(F)c34)n2)c(OC)cc1N(C)CCN(C)C [Example 90] ... 4.31
C=CC(=O)Nc1cc(Nc2nccc(-c3nn(C4CC4)c4ccccc34)n2)c(OC)cc1N(C)CCN(C)C [Example 119] ... 9.23
C=CC(=O)Nc1cc(Nc2nccc(-c3c[nH]c4ccccc34)n2)c(OC(F)F)cc1N(C)CCN(C)C [Example 8] ... 8.8
C=CC(=O)Nc1cc(Nc2nccc(-c3cn(C4CC4)c4ccccc34)n2)c(OC)cc1N(C)CCN1CCCC1 [Example 123] ... 21.23
C#CCn1cc(-c2ccnc(Nc3cc(NC(=O)C=C)c(N(C)CCN(C)C)cc3OC)n2)c2ccccc21 [Example 140] ... 14.76

[a] C=CC(=O)Nc1cc(Nc2nccc(-c3cn(S(=O)(=O)N(C)C)c4ccccc34)n2)c(OC)cc1N(C)CCN(CC)CC [Example 103]
[b] C=CC(=O)Nc1cc(Nc2nccc(-c3cn(C)c4c(F)cc(F)cc34)n2)c(OC)cc1N(C)CCN(C)C [Example 89]
q: Lab log: flag the item ( a or b ) with the smaller Selectivity of wild-type/mutant-type figure. # reply format: chosen label
a: b
(b: 4.04, a: 6.71)

[a] C=CC(=O)Nc1cc(Nc2ncc(C(F)(F)F)c(-n3nc(OC)c4cc(Cl)ccc43)n2)c(OC)cc1N(C)CCN(C)C [Example 109]
[b] C=CC(=O)Nc1cc(Nc2ncc(C(F)(F)F)c(-c3cn(C)c4cc(OC)ccc34)n2)c(OC)cc1N(C)CCN(C)C [Example 99]
q: Lab note: check whether a or b shows the higher recorded Selectivity of wild-type/mutant-type. # reply format: chosen label
a: a
(a: 74.79, b: 23.86)
